// CLK3 (Homo sapiens (Human)) IC50 records
measured-quantity: IC50 (nM)

Reference set, count: 8
compound	target-or-test-system	unit-string	IC50
CCN1Cc2c(c(OC(C)C)nn2CC(N)=O)/C=C/c2n[nH]c3ccc(cc23)-c2cnn(C)c2O[C@@H](C)C1 [Example 232]	CLK3 (Homo sapiens (Human))	nM	42
Cc1onc2c1/C=C/c1n[nH]c3ccc(cc13)-c1cnn(C)c1OCCOC2 [Example 320]	CLK3 (Homo sapiens (Human))	nM	0.2
CCNc1nn(CCO)c2c1/C=C/c1n[nH]c3ccc(cc13)-c1cnn(C)c1O[C@@H](C)CN(C)C2 [Example 295]	CLK3 (Homo sapiens (Human))	nM	13.8
Cc1snc2c1/C=C/c1n[nH]c3ccc(cc13)-c1cnn(C)c1O[C@@H](C)CN(C)C2 [Example 158]	CLK3 (Homo sapiens (Human))	nM	664
Cc1nn(C)c2c1/C=C/c1n[nH]c3ccc(cc13)-c1cnn(C)c1O[C@@H]1CCCN(C2)C1 [Example 122]	CLK3 (Homo sapiens (Human))	nM	21.2
Cc1onc2c1/C=C/c1n[nH]c3ccc(cc13)-c1cnn(C)c1O[C@@H](C)CN(C)C2 [Example 134]	CLK3 (Homo sapiens (Human))	nM	230
CCOc1nn(CCO)c2c1/C=C/c1n[nH]c3ccc(cc13)-c1cnn(C)c1O[C@@H]1CCCN(C2)C1 [Example 137]	CLK3 (Homo sapiens (Human))	nM	79.2
C[C@H]1CN(C)Cc2c(c(OC3CCN(S(C)(=O)=O)CC3)nn2C)/C=C/c2n[nH]c3ccc(cc23)-c2cnn(C)c2O1 [Example 143]	CLK3 (Homo sapiens (Human))	nM	12.1

a: CC(C)Oc1nn(CCO)c2c1/C=C/c1n[nH]c3ccc(cc13)-c1cnn(C)c1O[C@@H](C)CN(C)[C@@H]2C [Example 223]
b: CCOc1nn(CCO)c2c1/C=C/c1n[nH]c3cc(F)c(cc13)-c1cnn(C)c1O[C@@H](C)CN(CC)C2 [Example 288]
c: CCOc1nn([C@@H](C)CO)c2c1/C=C/c1n[nH]c3cc(F)c(cc13)-c1cnn(C)c1O[C@@H](C)CN(CC)C2 [Example 215]
d: CC(C)Oc1nn(CCO)c2c1/C=C/c1n[nH]c3ccc(cc13)-c1cnn(C)c1O[C@@H](CO)CN(C)C2 [Example 258]
QUERY: Order these by IC50, descending, and give the full ranking. # the answer lists labels in the order requested
RESULT: c, b, a, d
(c: 964 nM, b: 131 nM, a: 30 nM, d: 17.2 nM)

Values were extracted from patent US20250353864A1.
